- Test system: SW-620
- assay.details: NCI tumour cell line growth inhibition, 48 h
The source made the active and inactive calls. Cut-off read from the data, not from the text of the source: active = GI50 up to about 1.1 µM and inactive = higher.
Reported GI50 values follow for various compounds
observed.property: GI50

compound: COc1ccccc1/C=C/C(=O)c1sc(-c2cccnc2)nc1C
observed.property: GI50
measurement: > 100 µM (inactive)
--
compound: NC(=O)c1cc2ccc(O)cc2o/c1=N/c1ccccc1
observed.property: GI50
measurement: 26.2 µM (inactive)
--
compound: COC1C(OC(N)=O)C(O)C(Oc2ccc3c(O)c(NC(=O)c4ccc(O)c(CC=C(C)C)c4)c(=O)oc3c2C)OC1(C)C (stereo not drawn)
observed.property: GI50
measurement: > 100 µM (inactive)

* * *

- Test system: HOP-62
- assay.details: NCI tumour cell line growth inhibition, 48 h
Active and inactive are the calls of the source. Cut-off read from the data, not from the text of the source: active = GI50 up to about 1.1 µM and inactive = higher.

compound: N#C/C(=C\c1c(O)cc(O)cc1O)C(N)=O
GI50: > 100 µM (inactive)
--
compound: CN(C)/C=[N+]1/[C@@H](Cc2ccccc2)C(=O)O[B-]1(F)c1ccccc1 (some centres undefined)
GI50: > 100 µM (inactive)
--
compound: O=C(O)c1cc(C(=O)O)cc(N2C(=O)c3ccccc3C2=O)c1
GI50: > 100 µM (inactive)
--
compound: CCOc1ccc(/N=N/C2C(=O)N(C(=O)CC(=O)Nc3ccccc3OC)N=C2C)cc1 (centres undefined)
GI50: > 33.4 µM (inactive)
--
compound: COc1cc(/C=C2/SC(c3ccccc3)N(c3cccc(NC(C)=O)c3)C2=O)cc(OC)c1OC (centres undefined)
GI50: 81.8 µM (inactive)
--
compound: CON(C(=O)OC(C)(C)C)c1ccccc1
GI50: > 100 µM (inactive)
--
compound: CCC(CC)n1cc(C(=O)NC(=O)NCCCCCOC(=O)CCCCCCCCCCC(=O)OCCCCCNC(=O)NC(=O)c2cn(C(CC)CC)c(=O)[nH]c2=O)c(=O)[nH]c1=O
GI50: > 100 µM (inactive)
--
compound: COC(=O)C1=C(O)C(C(=O)OC)[C@]2(O)[C@H](C(=O)OC)[C@H]1C[C@@H](c1ccc(F)cc1)[C@H]2C(=O)OC (some centres undefined)
GI50: 22.6 µM (inactive)
--
compound: Cc1ccc(S(=O)(=O)N(CC(O)COc2ccccc2)c2ccc(F)cc2F)cc1 (centres undefined)
GI50: 15.5 µM (inactive)

* * *

- Tested on: HCT-15

compound: CCCCc1c(OC)cc(O)c2c1C(=O)c1[nH]c(C(=O)O)c(O)c(=O)c1C2=O
comparison.operator: =
GI50, µM: 23.8
//
compound: CC[C@H]1C=CCC[C@@]2(C[C@@H]3CC[C@H]4[C@@H](C(=O)OCCCCCCCCCCCCCCCC(=O)N(CCCNC(C)=O)C[C@H](CCNC(C)=O)OC(C)=O)[C@@]5(CCC[C@@H](C)O5)NC(=[N+]34)N2)O1
comparison.operator: =
GI50, µM: 1.7
//
compound: COc1ccc([N+]2=NC(c3ccc([N+](=O)[O-])cc3)=NN(c3ccccc3)C2)cc1.[O-][Cl+3]([O-])([O-])[O-]
comparison.operator: =
GI50, µM: 41.9
//
compound: CCCCCCN(N)C(=O)CC#N
comparison.operator: >
GI50, µM: 100
//
compound: Cc1nn(-c2ccccc2)c(C)c1/C=N/NC(=O)c1sc(=S)n(-c2ccc(Cl)cc2)c1N
comparison.operator: =
GI50, µM: 6.56
//
compound: CCOP(=O)(/C=C/n1cc(C)c(=O)[nH]c1=O)OCC
comparison.operator: >
GI50, µM: 100
//
compound: SC1=NC2=C(CSC/C2=C\c2ccc(Cl)cc2)C(c2ccc(Cl)cc2)N1 (centres undefined)
comparison.operator: =
GI50, µM: 34
//
compound: COc1cccc(C23CCCC(C2)NCC3Br)c1OC (centres undefined)
comparison.operator: =
GI50, µM: 40.9
//
compound: CC(SC(=S)N(C)C)C(=O)Nc1nnc(-c2ccc(Cl)cc2)o1 (centres undefined)
comparison.operator: =
GI50, µM: 17.7
//
compound: CC(C)(C)OC(=O)[C@@H]1CCC(=O)N1C1(c2ccccc2)c2ccccc2-c2ccccc21
comparison.operator: =
GI50, µM: 55.5
//
compound: O=[N+]([O-])C1=Cc2cc(Cl)ccc2OC1c1cccc2ccccc12 (centres undefined)
comparison.operator: =
GI50, µM: 0.37
//
compound: CC(Nc1ccc(S(=O)(=O)NC(=N)N)cc1)c1c2ccccc2nc2ccccc12 (centres undefined)
comparison.operator: =
GI50, µM: 29.2
//
compound: CCOP(=O)(OCC)C(F)(F)c1ccc(CC(NC(=O)OC(C)(C)C)C(=O)O)cc1 (centres undefined)
comparison.operator: >
GI50, µM: 10
//
compound: O=C1CC(NCCCNC2CC(=O)c3c(Br)sc(Br)c32)c2c(Br)sc(Br)c21 (centres undefined)
comparison.operator: =
GI50, µM: 1.71
//
compound: C/C(=C1/N=C(c2cc([N+](=O)[O-])ccc2Cl)N(c2ccc(Br)cc2)C1=O)c1ccc(N(CCC#N)CCC#N)cc1C
comparison.operator: =
GI50, µM: 16.4
//
compound: CC12CC3CC/C(=N\O)C(C1)C3(N1CCOCC1)C/C2=N/O (centres undefined)
comparison.operator: >
GI50, µM: 100
//
compound: O=c1c2cc(I)ccc2nc(Sc2ccc([N+](=O)[O-])cc2[N+](=O)[O-])n1Cc1ccccc1
comparison.operator: =
GI50, µM: 1.61
//
compound: COc1ccc(/N=N/C(=N\c2ccc(F)cc2)c2ccc(N(CCC#N)CCC#N)cc2)cc1
comparison.operator: =
GI50, µM: 54
//
compound: O=C1NC(=O)C(C(c2ccc([N+](=O)[O-])cc2)C2C(=O)NC(=O)NC2=O)C(=O)N1
comparison.operator: >
GI50, µM: 100

* * *

- System: K562
- assay.details: NCI tumour cell line growth inhibition, 48 h
Calls of active or inactive are those of the source. No stated cut-off is given here; in the data, active = GI50 up to about 1.1 µM and inactive = higher.
Outcome codes: t (active), f (inactive)

molecule: Cc1c(C(=O)CC(=O)C(=O)Nc2c(C(C)C)cccc2C(C)C)[n+]([O-])c2ccccc2[n+]1[O-]
qualitative.label: f
--
molecule: COc1ccc(P2(=S)Oc3ccc(C(c4ccccc4)(c4ccccc4)c4ccccc4)cc3O2)cc1 (stereo not drawn)
qualitative.label: f
--
molecule: O=C1/C(=C\c2c(-c3ccccc3)[nH]n(-c3ccccc3)c2=O)C(c2ccccc2)=NN1c1ccccc1
qualitative.label: f
--
molecule: CC(=O)Nc1ccc(-c2nc3cc(Cl)ccc3o2)cc1
qualitative.label: f
--
molecule: Cc1[nH]c(=O)nc(S)c1C(=O)Nc1cccc2cc3ccccc3cc12
qualitative.label: f
--
molecule: CC1=C(C#N)C(C#N)(C#N)C(NN(C)C)C1 (stereo not drawn)
qualitative.label: f
--
molecule: COc1cc(-c2nc(N)c(C#N)c3c2CCS(=O)(=O)c2ccc(C)cc2-3)cc(OC)c1OC
qualitative.label: f
--
molecule: N#C/C(=C\c1c(O)cc(O)cc1O)C(N)=O
qualitative.label: f
--
molecule: Cc1c(-c2c(C)c3ccccc3n2S(=O)(=O)c2ccccc2)n(S(=O)(=O)c2ccccc2)c2ccccc12
qualitative.label: f
--
molecule: CC(C)(C)NNc1c([N+](=O)[O-])cnn(-c2ccccc2)c1=O
qualitative.label: t
--
molecule: CCN(CC)CCNC(=O)c1ccc(I)cc1
qualitative.label: f
--
molecule: O=S(=O)(c1cc(Cl)ccc1Cl)n1ccnc1
qualitative.label: f
--
molecule: C=C1C(O)C2(O)OCC34C(CC5C(C)=CC(=O)C(O)C5(C)C23)OC(=O)C(OC(=O)C/C=C(\C)CCCCC)C14 (stereo not drawn)
qualitative.label: t

* * *

- Test system: EKVX
- assay.details: NCI tumour cell line growth inhibition, 48 h
Activity calls are given as the source filed them. Rule as the data show it: active = GI50 up to about 1.1 µM and inactive = higher.
observed.property: GI50

compound: C=C(C)C1Cc2c(cc(O)c3c(=O)c4c(oc23)C(O)Oc2cc(OC)c(OC)cc2-4)O1 (stereo unspecified)
observed.property: GI50
measurement: > 10 µM (inactive)
//
compound: N#Cc1nc(COCCOCc2ccccc2)oc1N
observed.property: GI50
measurement: > 100 µM (inactive)
//
compound: COC1=C(C)C(=O)C2C(C1=O)C(c1ccc(OC)c(OC)c1)[C@H]2C (stereo partly specified)
observed.property: GI50
measurement: > 100 µM (inactive)
//
compound: CCOC(=O)CSc1nnc(CSc2nc(-c3ccccc3)c(-c3ccccc3)[nH]2)n1-c1ccccc1
observed.property: GI50
measurement: > 100 µM (inactive)
//
compound: CCOP(=O)(OCC)C(C#N)Cc1ccco1 (stereo unspecified)
observed.property: GI50
measurement: > 10 µM (inactive)
//
compound: CC12CC3CC/C(=N\O)C(C1)C3(N1CCOCC1)C/C2=N/O (stereo unspecified)
observed.property: GI50
measurement: > 100 µM (inactive)
//
compound: N#Cc1c(N)oc(-c2cccc([N+](=O)[O-])c2)c1C#N
observed.property: GI50
measurement: 12.9 µM (inactive)
//
compound: CC(C)C1CC=NN1C(=O)OC(C)(C)C (stereo unspecified)
observed.property: GI50
measurement: > 100 µM (inactive)
//
compound: CCSC1=N/C(=C\c2ccco2)C(NN)=N1
observed.property: GI50
measurement: > 50 µM (inactive)
//
compound: Cc1ccc2oc(=O)cc(CC(=O)O)c2c1
observed.property: GI50
measurement: > 100 µM (inactive)
//
compound: COc1ccc(/N=N/c2c(-c3ccccc3)nn(C(=O)CC(=O)Nc3ccc(OC)cc3)c2-c2ccccc2)cc1
observed.property: GI50
measurement: 71.1 µM (inactive)
